pKi tested on UniProt P43235: recorded values
Sequence (P43235 whole entry): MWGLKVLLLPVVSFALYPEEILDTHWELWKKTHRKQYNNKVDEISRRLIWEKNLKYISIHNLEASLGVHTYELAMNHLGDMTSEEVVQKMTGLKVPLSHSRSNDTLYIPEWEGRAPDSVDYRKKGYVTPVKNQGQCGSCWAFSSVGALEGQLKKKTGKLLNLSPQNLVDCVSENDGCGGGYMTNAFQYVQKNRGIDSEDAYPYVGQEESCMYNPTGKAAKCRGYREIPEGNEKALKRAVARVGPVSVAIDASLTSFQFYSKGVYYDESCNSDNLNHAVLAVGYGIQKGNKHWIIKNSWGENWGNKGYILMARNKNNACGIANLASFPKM
pKi: −log10 of the molar value.
quantity.measured: pKi

A. CC(C)C[C@H](NC(=O)[C@H](CCc1ccccc1)N/C=C/S(=O)(=O)c1ccccc1)C(=O)NC(=O)NN1CCOCC1
B. O=C(NC(=O)[C@H](Cc1ccccc1)NC(=O)[C@H](CCc1ccccc1)N/C=C/S(=O)(=O)c1ccccc1)NN1CCOCC1
Exercise: // pick larger pKi from pair: A vs B Answer = label.
Solution: A
(A: 6.64, B: 4.52)

---

subject.of.test: UniProt P25779
Sequence (P25779 123-467 limits assumed): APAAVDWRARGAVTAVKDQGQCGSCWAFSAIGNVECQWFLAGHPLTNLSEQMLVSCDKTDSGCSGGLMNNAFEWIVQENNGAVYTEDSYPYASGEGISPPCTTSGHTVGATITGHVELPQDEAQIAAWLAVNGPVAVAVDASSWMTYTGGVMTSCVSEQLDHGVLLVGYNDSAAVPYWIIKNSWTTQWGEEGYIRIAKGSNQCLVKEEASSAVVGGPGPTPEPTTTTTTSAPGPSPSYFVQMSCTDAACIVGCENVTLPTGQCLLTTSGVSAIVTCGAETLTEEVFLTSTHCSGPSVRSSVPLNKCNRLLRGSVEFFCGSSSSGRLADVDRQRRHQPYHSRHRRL
assay.remarks: Compound is evaluated for inhibition kinetic constant (kobs/[I], 1/M.1/s) for Cruzaine
quantity.measured: k obs / 1 (M⁻¹ s⁻¹)

1) CS(=O)(=O)/C=C/N[C@@H](CCc1ccccc1)C(=O)N[C@@H](Cc1ccccc1)C(=O)NC(=O)NN1CCOCC1
22000
2) CC(C)C[C@H](NC(=O)OCc1ccccc1)C(=O)N[C@@H](CC(C)C)C(=O)N[C@@H](Cc1ccc(O)cc1)C(=O)/C=C/S(=O)(=O)c1ccccc1
45000
3) CCCC[C@H](NC(=O)[C@H](CC(C)C)NC(=O)[C@H](CC(C)C)NC(C)=O)C(=O)/C=C/S(=O)(=O)c1ccccc1
133000
4) NCCCC[C@H](N/C=C/S(=O)(=O)c1ccccc1)C(=O)N[C@@H](Cc1ccccc1)C(=O)NC(=O)NN1CCOCC1
149000
5) CC(=O)N[C@@H](CC(C)C)C(=O)N[C@@H](CC(C)C)C(=O)N[C@@H](CCS(C)(=O)=O)C(=O)/C=C/S(=O)(=O)c1ccccc1
104000
6) CSCC[C@H](NC(=O)[C@H](CC(C)C)NC(=O)[C@H](CC(C)C)NC(C)=O)C(=O)/C=C/S(=O)(=O)c1ccccc1
110000

A. O=C(NC(=O)[C@H](Cc1ccccc1)NC(=O)[C@H](CCc1ccccc1)N/C=C/S(=O)(=O)CCc1ccccc1)NN1CCOCC1
B. O=C(NC(=O)[C@H](Cc1ccc2ccccc2c1)NC(=O)[C@H](CCc1ccccc1)N/C=C/S(=O)(=O)CCc1ccccc1)NN1CCOCC1
Exercise: Hi, I'm comparing two records. Which one has the lower k obs / 1, A or B ? Answer = label.
Solution: A
(A: 180000 M⁻¹ s⁻¹, B: 450000 M⁻¹ s⁻¹)

---

subject.of.test: Cathepsin B (Homo sapiens)
assay.remarks: Compound is evaluated for inhibition kinetic constant Ki for the cathepsin B
quantity.measured: Ki (nM)
Numeric only. Scale: nM

Exercise: Could you share which Ki value was measured for "O=C(NC(=O)[C@H](Cc1cc(I)c(O)c(I)c1)NC(=O)[C@H](CCc1ccccc1)N/C=C/S(=O)(=O)c1ccccc1)NN1CCOCC1" ?
Solution: 340

---

subject.of.test: Cathepsin B (Homo sapiens)
assay.remarks: Compound is evaluated for inhibition kinetic constant (kobs/[I], 1/M.s) for cathepsin B
quantity.measured: k obs / 1 (M⁻¹ s⁻¹)

Consider the reported k obs / 1 for these compounds:
1) CSCC[C@H](NC(=O)[C@H](CC(C)C)NC(=O)[C@H](CC(C)C)NC(C)=O)C(=O)/C=C/S(=O)(=O)c1ccccc1
0
2) O=C(NC(=O)[C@H](Cc1ccccc1)NC(=O)[C@H](CCc1ccccc1)N/C=C/S(=O)(=O)CCc1ccccc1)NN1CCOCC1
29000
3) CCCC[C@H](NC(=O)[C@H](CC(C)C)NC(=O)[C@H](CC(C)C)NC(C)=O)C(=O)/C=C/S(=O)(=O)c1ccccc1
0

1. CC(C)C[C@H](NC(=O)OCc1ccccc1)C(=O)N[C@@H](CC(C)C)C(=O)N[C@@H](Cc1ccc(O)cc1)C(=O)/C=C/S(=O)(=O)c1ccccc1
2. O=C(NC(=O)[C@H](Cc1ccc2ccccc2c1)NC(=O)[C@H](CCc1ccccc1)N/C=C/S(=O)(=O)CCc1ccccc1)NN1CCOCC1
3. CC(=O)N[C@@H](CC(C)C)C(=O)N[C@@H](CC(C)C)C(=O)N[C@@H](CCS(C)(=O)=O)C(=O)/C=C/S(=O)(=O)c1ccccc1
4. CS(=O)(=O)/C=C/N[C@@H](CCc1ccccc1)C(=O)N[C@@H](Cc1ccccc1)C(=O)NC(=O)NN1CCOCC1
5. NCCCC[C@H](N/C=C/S(=O)(=O)c1ccccc1)C(=O)N[C@@H](Cc1ccccc1)C(=O)NC(=O)NN1CCOCC1
Exercise: Sort the compounds on k obs / 1; start with the lowest figure. Sort and list the labels as requested.
Solution: 3, 1, 4, 5, 2
